Experiment: Study SI06004: plasma pharmacokinetics of silodosin and metabolites, 8 mg once daily for 7 days
Format: in vivo, human
Conditions: human, plasma, oral; 8 mg once daily for 7 days; mean (SD); read-out: AUC(0-24)

Compound	AUC(0-t), ng·h/mL
C[C@H](Cc1cc2c(c(C(N)=O)c1)N(CCCO)CC2)NCCOc1ccccc1OCC(F)(F)F [silodosin]	373

----------
Experiment: Study SI07004: silodosin pharmacokinetics after seven daily doses of 4 mg or 8 mg in healthy male subjects
Assay type: in vivo, human
Conditions: male, human, plasma, 4 mg, after 7 days of dosing; read-out: Cmax, mean
Readout: Cmax (ng/mL)

C[C@H](Cc1cc2c(c(C(N)=O)c1)N(CCCO)CC2)NCCOc1ccccc1OCC(F)(F)F 28.4

Reference for the values: patent US20120184591A1
